Target: fully phosphorylated, mouse aERK2 enzyme (Mus musculus (Mouse))
Sequence (P63085 whole entry): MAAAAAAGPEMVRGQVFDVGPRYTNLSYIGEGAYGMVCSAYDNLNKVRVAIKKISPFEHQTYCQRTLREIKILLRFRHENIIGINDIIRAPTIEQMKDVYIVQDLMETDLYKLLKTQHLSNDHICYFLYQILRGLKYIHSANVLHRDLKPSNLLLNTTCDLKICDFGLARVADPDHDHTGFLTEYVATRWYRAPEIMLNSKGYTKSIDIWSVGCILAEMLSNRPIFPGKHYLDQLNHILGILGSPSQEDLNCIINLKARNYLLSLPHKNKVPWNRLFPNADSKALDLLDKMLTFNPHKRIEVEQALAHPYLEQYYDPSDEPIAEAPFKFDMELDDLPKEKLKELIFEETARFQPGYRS
Test: Active ERK2 (aERK) IMAP-FP assay, condition 2
Assay type: biochemical
Settings: active ERK2; read-out: aErk2 Ic50
pIC50: −log10 of the molar value.
Reported pIC50 values follow for various compounds
value kind: pIC50

1) COc1cccc(F)c1CN1C[C@H](NC(=O)c2ccc3[nH]nc(-c4ccnc(C)c4)c3c2)CC[C@H]1C(=O)N1CCN(C(=O)OC2CCOCC2)CC1 ... 7.73
2) Cc1cc(-c2n[nH]c3ccc(C(=O)N[C@@H]4CC[C@@H](C(=O)N(C)C)N(Cc5ccccc5F)C4)cc23)ccn1 ... 7.40
3) COc1cccc(F)c1CN1C[C@H](NC(=O)c2ccc3[nH]nc(-c4ccc5nn(C)cc5c4)c3c2)CC[C@H]1C(=O)N(C)C ... 7.80
4) CCN(CC)C(=O)[C@@H]1CC[C@@H](NC(=O)c2ccc3[nH]nc(-c4ccnnc4)c3c2)CN1Cc1c(F)cccc1OC ... 6.86
5) CCN(CC)C(=O)[C@@H]1CC[C@@H](NC(=O)c2ccc3[nH]nc(-c4ccnc(C)c4)c3c2)CN1CCc1ccccc1 ... 6.80
6) COc1cccc(F)c1CN1C[C@H](NC(=O)c2ccc3[nH]nc(-c4ccnc(C)c4)c3c2)CC[C@H]1C(=O)NN(C)C ... 7.91
7) COc1cccc(F)c1CN1C[C@H](NC(=O)c2ccc3[nH]nc(-c4ccnc(C)c4)c3c2)CC[C@H]1C(=O)N(C)CCCCNC(=O)OC(C)(C)C ... 7.04
8) [2H]C([2H])([2H])Oc1cccc(F)c1CN1C[C@H](NC(=O)c2ccc3[nH]nc(-c4ccc5nc(C)sc5c4)c3c2)CC[C@H]1C(=O)N1CCN(C(C)=O)CC1 ... 7.20
9) COc1cccc(F)c1CN1C[C@H](NC(=O)c2ccc3[nH]nc(-c4ccnc(C)c4)c3c2)CC[C@H]1C(=O)NCCCCl ... 7.93
10) CCN(CC)C(=O)[C@@H]1CC[C@@H](NC(=O)c2ccc3[nH]nc(-c4ccncc4)c3c2)CN1Cc1c(F)cccc1OC ... 7.74
11) Cc1cc(-c2n[nH]c3ccc(C(=O)N[C@@H]4CC[C@@H](C(=O)N5CC(F)(F)C5)N(CCc5ccccc5)C4)cc23)ccn1 ... 6.63
12) Cc1cc(-c2n[nH]c3ccc(C(=O)N[C@@H]4CC[C@@H](C(=O)N(C)C)N(CCc5ccccc5)C4)cc23)ccn1 ... 6.88
13) CCOC(=O)N1CCN(C(=O)[C@@H]2CC[C@@H](NC(=O)c3ccc4[nH]nc(-c5ccnc(C)c5)c4c3)CN2Cc2c(F)cccc2OC)CC1 ... 7.69
14) CCCCN(CCCC)C(=O)[C@@H]1CC[C@@H](NC(=O)c2ccc3[nH]nc(-c4ccnc(C)c4)c3c2)CN1Cc1c(F)cccc1OC ... 6.30
